System: CD8+ and CD4+ T cells (autologous CD3+ Pan-T cells isolated from human normal PBMCs)
ASSAY_PROTOCOL: Exogenous autologous normal donor restimulation assay (15-mer overlapping peptide pools on CD1c+ dendritic cells, TNFα/IFNγ flow cytometry)
Type: cell-based
MEASUREMENT_PARAMETERS: Table 28; additional neoantigens; 15-mer overlapping peptide pool; highest across normal donors
Source text: CD1c+ Dendritic Cells (DC) isolated from human normal PBMCs were thawed using media (IMDM (Gibco) supplemented with glutamine, HEPES, 5% human serum (Sigma), and 1× Pen-Strep). […] The following day, DC cells were counted and plated in a 96 well round bottom microplate at a concentration of 30,000 viable cells per well. […] On day 12, cells were stained for intracellular flow cytometry analysis. […] Cells were washed and resuspended in stain buffer and analyzed using a BD Celesta flow cytometer. […]
Max. Frequency of CD8+ TNFαINFγ DP: recorded values
Give your answer as a number; write no unit.

Worked examples follow.
MOLECULE: KMRAIQAEGGHGQACCGGAWGWAPGDGGPQGMLTHTLPTLGFQSAWTWRREDADRAWRTPKACASRRWSI (peptide, listed as Homo sapiens, LRRC45 alternative splicing) KMRAIQAEGGHGQACCGGAWGWAPGDGGPQGMLTHTLPTLGFQSAWTWRREDADRAWRTPKACASRRWSI
Max. Frequency of CD8+ TNFαINFγ DP: 0.26
--
MOLECULE: LQAAASGQGKQGVPCPWGCCAYAESPRALISGDAPSQVEREVPGPCLNTHSLSHRSPQLPGLPHPKQPSV (peptide, listed as Homo sapiens, TONSL alternative splicing) LQAAASGQGKQGVPCPWGCCAYAESPRALISGDAPSQVEREVPGPCLNTHSLSHRSPQLPGLPHPKQPSV
Max. Frequency of CD8+ TNFαINFγ DP: 0.1

// next entry
IN: Tell me the measured Max. Frequency of CD8+ TNFαINFγ DP of PVAIKPGTGPPNNSSIHGGSKRSENSYCRDLRGQLRAICCSSYSHDRHTTEERGSRGRHVWRIRRLHTSGLPCCCHSGPHPRRLPDILRLVTSTKTDHTNTTEGTLDYL (peptide, listed as Homo sapiens, RBM47 alternative splicing) PVAIKPGTGPPNNSSIHGGSKRSENSYCRDLRGQLRAICCSSYSHDRHTTEERGSRGRHVWRIRRLHTSGLPCCCHSGPHPRRLPDILRLVTSTKTDHTNTTEGTLDYL , please.
OUT: 0.07
